MEASURED_ON: Voltage-gated potassium channel subunit beta-2 (Rattus norvegicus)
METHOD_SUMMARY: enhancers of rat Kvbeta2 NADPH turnover – biochemical, NADPH fluorescence, primary screen (AID 623);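 note: fluorescence intensity change per second fitted from 20 to 320 s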
CONDITION_PARAMETERS: Recombinant KvBeta, NADPH fluorescence decrease slope, 10 min; at 10 µM; stronger effect = lower value
Recorded NADPH fluorescence slope by entry
The answer should be a number; do not append a unit.

[[record]]
compound = "Cc1ccccc1-n1nnc2c(=O)oc3ccccc3c21"
numeric_readout = "-3.7e-05"

[[record]]
compound = "Cc1c(C)[n+](=O)c2c(n1[O-])CCCCC2"
numeric_readout = "-4.7e-05"

[[record]]
compound = "COc1cccc(C2CC(c3ccc(C)cc3)n3nc(N)nc3N2)c1 (configuration not stated)"
numeric_readout = "-2.8e-06"

[[record]]
compound = "O=C(NCc1cccnc1)C1c2ccccc2C(=O)N1Cc1ccco1 (configuration not stated)"
numeric_readout = "-1.9e-05"

[[record]]
compound = "COc1cccc(C2C(C(N)=O)=C(C)Nc3nc(CCCO)nn32)c1OC (configuration not stated)"
numeric_readout = "-2.8e-05"

[[record]]
compound = "C=CCN1C(=O)CS/C1=C(\\C#N)S(=O)(=O)c1ccc(C)cc1"
numeric_readout = "-4.8e-05"


Query: Fetch value of NADPH fluorescence slope on Voltage-gated potassium channel subunit beta-2 (Rattus norvegicus) for O=C(CSc1nnc2ccccn12)c1ccccc1 .
Result: 4e-05

Query: Fetch value of NADPH fluorescence slope on Voltage-gated potassium channel subunit beta-2 (Rattus norvegicus) for Cn1c(=O)c(=O)n(C)c2cc(S(=O)(=O)N3CCCCC3)ccc21 .
Result: -7.3e-05

###

METHOD_SUMMARY: inhibitors of TNFa-induced NFkB p65 translocation, primary screen, imaging, HUVEC, MLSMR starter and 10KST1 sets (AID 438);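 note: compound added about 3h40 before a 20 min TNFalpha stimulation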
CONDITION_PARAMETERS: HUVEC TNFa-induced p65 nuclear translocation; measured here: nuclei count (cytotoxicity indicator), at 2.08 µM
Recorded cell count by entry
The answer should be a number; do not append a unit.

Query: Retrieve cell count measured for CC(C)COC(=O)C1C2C=CC3(CN(C(C)c4ccc(Br)cc4)C(=O)C13)O2 (stereo not given) and print it.
Result: 477

Query: Retrieve cell count measured for O=C(CN1CCN(Cc2ccccc2F)C1=O)NCc1cccnc1 and print it.
Result: 674

Query: Retrieve cell count measured for COC(=O)c1cc2oc(C)cc2n1CC(=O)Nc1ccc(C)c(C)c1 and print it.
Result: 386

Query: Retrieve cell count measured for Cn1c(SCC(N)=O)nnc1C1CCN(C(=O)NCc2ccccc2)CC1 and print it.
Result: 325

Query: Retrieve cell count measured for Cc1ccc(S(=O)(=O)Cn2nnnc2C(C(C)C)N2CCN(C(=O)c3ccco3)CC2)cc1 (stereo not given) and print it.
Result: 400

Query: Retrieve cell count measured for COc1cc(C2N3CC4(C)CN2CC(C)(C3)C4)ccc1O (stereo not given) and print it.
Result: 309

Query: Retrieve cell count measured for CN1CCc2c(sc3c2c(=O)n(-c2ccccc2)c2nnc(SCc4ccc(F)cc4)n32)C1 and print it.
Result: 375

Query: Retrieve cell count measured for CCOc1ccccc1NC(=O)CC1Nc2cc(C)c(C)cc2NC1=O (stereo not given) and print it.
Result: 374

Query: Retrieve cell count measured for CC(=O)c1cccc(S(=O)(=O)NCC(c2ccco2)N2CCCCC2)c1 (stereo not given) and print it.
Result: 707

Query: Retrieve cell count measured for Cn1c(CNc2nc(-c3ccccc3)cs2)nnc1SCC(=O)N1CCc2ccccc21 and print it.
Result: 628

###

Recorded inhibition by entry
METHOD_SUMMARY: inhibitors of TNFa-induced NFkB p65 translocation, primary screen, imaging, HUVEC, MLSMR starter and 10KST1 sets (AID 438);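 note: compound added about 3h40 before a 20 min TNFalpha stimulation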;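 for inhibition: signal is the nuclear over cytoplasmic p65 intensity ratio per well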
CONDITION_PARAMETERS: HUVEC TNFa-induced p65 nuclear translocation; at 2 µM, stronger effect = higher value, 0% TNFa-plus-vehicle, 100% no-TNFa wells
Report the figure in % without appending any unit label.

// solved cases for inhibition follow
[[record]]
compound = "Cc1c(C)n(C)c2ccc(C(=O)NCc3cccs3)cc12"
numeric_readout = -9.2

[[record]]
compound = "CC1CCN(S(=O)(=O)c2ccc3[nH]cc(C(=O)NCCN4CCOCC4)c(=O)c3c2)CC1"
numeric_readout = -3

[[record]]
compound = "O=C(Nc1nonc1NC(=O)C1CCCCC1)C1CCCCC1"
numeric_readout = 10.2

[[record]]
compound = "COc1ccc(CCNC(=O)c2ccncc2)cc1OC"
numeric_readout = -18.8

[[record]]
compound = "CC(=O)Nc1cccc(NC(=O)c2oc3ccccc3c2C)c1"
numeric_readout = -0.2

[[record]]
compound = "CCSc1ccccc1C(=O)Nc1cccc(OC)c1"
numeric_readout = 0.8


Query: Retrieve inhibition measured for C/C(N)=C(/C#N)C(=O)CSc1nnc(Nc2cccc(C)c2)s1 and print it.
Result: 2.9

Query: Retrieve inhibition measured for O=S(=O)(Nc1cccnc1)c1cc(Cl)ccc1Cl and print it.
Result: 2.5

Query: Retrieve inhibition measured for COC(=O)c1ccc(CSc2nc3c(cnn3-c3ccc(F)cc3)c(=O)[nH]2)o1 and print it.
Result: -12.7

Query: Retrieve inhibition measured for CN(C1CCCCC1)S(=O)(=O)c1ccc(NC(=O)c2ccco2)cc1 and print it.
Result: 2.8

Query: Retrieve inhibition measured for O=C(COC(=O)CCC1CCCC1)Nc1ccc(Cl)cn1 and print it.
Result: -4.8

Query: Retrieve inhibition measured for Cc1ccc(NC(=O)c2ccco2)cc1NC(=O)CSc1nnc(-c2cccs2)n1C and print it.
Result: -5.5

###

Recorded nuclei count by entry
METHOD_SUMMARY: endothelial E-selectin expression blockers – imaging, HUVEC, immunofluorescence, MLSMR starter and 10KST1 sets, primary screen (AID 487);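 note: 100% = median nuclei count of all wells on the same plate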
CONDITION_PARAMETERS: HUVEC TNFalpha-induced E-selectin immunofluorescence imaging, at 2 µM; measured here: cell number, toxicity
Report the figure in % without appending any unit label.

// solved cases for nuclei count follow
[[record]]
compound = "CCN(C1CCCCC1)S(=O)(=O)c1ccc(S(=O)(=O)N2CCN(CCC#N)CC2)cc1"
observable = "nuclei count"
numeric_readout = 108

[[record]]
compound = "CCOc1ccccc1-c1nc(-c2ccc(C)nc2OC)no1"
observable = "nuclei count"
numeric_readout = 96.3

[[record]]
compound = "c1cc(-c2nc3ccccc3o2)nc(-c2nc3ccccc3o2)c1"
observable = "nuclei count"
numeric_readout = 113

[[record]]
compound = "COC(=O)c1cc(OC)c(OC)cc1NC(=O)CCC1CCCC1"
observable = "nuclei count"
numeric_readout = 101

[[record]]
compound = "CC1CN(c2ccc(Oc3ccccc3)cc2)c2nc3c(c(=O)n(CC(N)=O)c(=O)n3C)n2C1 (stereo unspecified)"
observable = "nuclei count"
numeric_readout = 93.4


Let's switch to this compound now.
Query: Retrieve nuclei count measured for COc1ccc(C(=O)c2ccccc2)c(O)c1 and print it.
Result: 97.5

###

Recorded inhibition of aggregation by entry
METHOD_SUMMARY: reduction of polyQ htt aggregates in cells – imaging, exon1htt(103Q)mCFP cells, high-content imaging, primary screen (AID 483);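 note: compound exposure lasted 3 days before fixation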
CONDITION_PARAMETERS: exon1htt(103Q)mCFP cell line, aggregate imaging, at 2 µM; stronger effect = higher value
Report the figure in % without appending any unit label.

// solved cases for inhibition of aggregation follow
[[record]]
given_smiles = "COC(=O)CCSCc1cn2cc(Cl)ccc2n1"
numeric_readout = -26.9

[[record]]
given_smiles = "Cc1cc(C(N)=O)c2cc(Br)ccc2n1"
numeric_readout = 0.7

[[record]]
given_smiles = "CCOC(=O)c1cnc(-n2cc(C)cn2)nc1Nc1ccccc1OC"
numeric_readout = 17.8


Query: Retrieve inhibition of aggregation measured for O=C(Cc1cccs1)Nc1nnc(CCc2ccccc2)s1 and print it.
Result: 15.6

Query: Retrieve inhibition of aggregation measured for CC(C)NC(=O)c1ccc2c(c1)nnn2C and print it.
Result: 4.8

Query: Retrieve inhibition of aggregation measured for O=C(NCc1nnc(SCC(=O)N2CCC(Cc3ccccc3)CC2)o1)c1ccccc1F and print it.
Result: 4.4

###

METHOD_SUMMARY: endothelial E-selectin expression blockers – imaging, HUVEC, immunofluorescence, MLSMR starter and 10KST1 sets, primary screen (AID 487);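 note: 100% = median nuclei count of all wells on the same plate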
CONDITION_PARAMETERS: HUVEC TNFalpha-induced E-selectin immunofluorescence imaging, at 2 µM; measured here: cell number, toxicity
OBSERVABLE: nuclei count (%)
Report the figure in % without appending any unit label.

Query: Retrieve nuclei count measured for CCCc1cc(=O)[nH]c(Nc2ccc(OC)c(Cl)c2)n1 and print it.
Result: 70.9

Query: Retrieve nuclei count measured for COc1ccc(C(=O)Cn2nnc(-c3cccs3)n2)cc1 and print it.
Result: 100

Query: Retrieve nuclei count measured for c1ccc(CCNc2ccc3nncn3n2)cc1 and print it.
Result: 121

Query: Retrieve nuclei count measured for COc1ccccc1NC(=O)N(C1CCCC1)C1CCN(C(C)=O)CC1 and print it.
Result: 123

Query: Retrieve nuclei count measured for COc1ccccc1-c1nc2n(n1)C(c1ccc(Cl)cc1)C(C(N)=O)=C(C)N2 (stereo unspecified) and print it.
Result: 84.9

Query: Retrieve nuclei count measured for CC(C)(C)n1nnnc1C(c1ccccc1)N1CCc2ccccc2C1 (stereo unspecified) and print it.
Result: 110
